# Test system: HUVEC
# protocol-notes: Cellular toxicity assay on HUVEC (WST-1 viability)
# Type: cell-based, human
# conditions-used: 24 hours, 10^−4 M, <75% considered toxic
# Description: Compound samples in PBS (without Ca^+2, Mg^+2)-glucose 3 mM-HEPES 10 mM—DMSO 1%, as prepared in Example 1, were thawed and left for at least 30 minutes at 20-23° C. before preparation of the following sub-dilutions for the compound toxicity assay: • 100 μL of stock compound solution were added to 900 μL PBSD-1 [diluted 1:10 for a final 1:10 dilution] • 100 μL (1/10 dilution above) were added to 900 μL PBSD-1 [diluted 1:10 for a final 1:100 dilution] Culture of HUVEC […]
observation-type: Viability (%)

Recall the recorded Viability (%) for O=C(NC(Cc1cccc(CSc2ncnc3[nH]ncc23)n1)C(=O)O)NC(c1ccccc1)c1ccccc1 (stereo not shown) [Compound 65] with HUVEC and state it.
107%

Same question, O=C(O)C(Cc1cccc(CSc2nnc[nH]2)n1)NS(=O)(=O)c1ccc(F)cc1 (stereo not shown) [Compound 66] this time
117%

Next molecule: O=C(NC(Cc1cccc(CSc2nnc[nH]2)n1)C(=O)O)NC(c1ccccc1)c1ccccc1 (stereo not shown) [Compound 37]
94%

Also, NC(Cc1cccc(CSc2nc3ccccc3o2)n1)C(=O)O (stereo not shown) [Compound 30] please.
110%

----------
# system-under-test: L1 transport system (large neutral amino acid carrier, L1-system carrier) (Rattus norvegicus)
# Construct: functionality of their endogenous transporters such as the L1-system carrier; endogenous in cells; host or cells: rat primary cerebrovascular (brain microcapillary) endothelial cells, RBEC
# Sequence (Q63016 whole entry): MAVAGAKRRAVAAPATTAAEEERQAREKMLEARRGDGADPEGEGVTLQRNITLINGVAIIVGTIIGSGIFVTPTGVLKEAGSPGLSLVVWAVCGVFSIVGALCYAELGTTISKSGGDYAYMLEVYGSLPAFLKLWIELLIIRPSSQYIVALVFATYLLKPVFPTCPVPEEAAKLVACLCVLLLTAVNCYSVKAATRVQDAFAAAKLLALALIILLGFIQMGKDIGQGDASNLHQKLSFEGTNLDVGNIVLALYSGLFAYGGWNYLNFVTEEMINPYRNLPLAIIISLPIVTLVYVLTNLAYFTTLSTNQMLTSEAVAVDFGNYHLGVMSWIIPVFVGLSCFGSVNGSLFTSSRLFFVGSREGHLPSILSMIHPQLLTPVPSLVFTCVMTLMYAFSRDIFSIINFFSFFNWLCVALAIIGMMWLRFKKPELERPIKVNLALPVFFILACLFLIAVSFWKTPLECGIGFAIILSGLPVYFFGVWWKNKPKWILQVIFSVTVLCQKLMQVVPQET
# Sequence (Q794F9 whole entry partner): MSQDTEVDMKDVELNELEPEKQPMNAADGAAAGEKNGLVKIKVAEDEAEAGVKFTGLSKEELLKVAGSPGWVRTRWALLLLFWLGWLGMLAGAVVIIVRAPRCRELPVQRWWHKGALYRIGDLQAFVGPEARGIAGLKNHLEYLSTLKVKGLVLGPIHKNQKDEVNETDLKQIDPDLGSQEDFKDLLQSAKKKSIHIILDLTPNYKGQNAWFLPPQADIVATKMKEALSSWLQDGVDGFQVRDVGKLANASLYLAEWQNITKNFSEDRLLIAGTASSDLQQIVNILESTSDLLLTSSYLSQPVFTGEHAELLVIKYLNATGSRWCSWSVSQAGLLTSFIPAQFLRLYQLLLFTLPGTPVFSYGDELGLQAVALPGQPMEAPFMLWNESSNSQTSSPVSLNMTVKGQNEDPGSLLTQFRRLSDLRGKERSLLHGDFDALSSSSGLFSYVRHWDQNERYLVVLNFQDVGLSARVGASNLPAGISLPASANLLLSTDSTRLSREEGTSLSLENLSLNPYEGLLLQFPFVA
# protocol-notes: Competitive binding assay to the brain L1 transport system (L-[U-14C]phenylalanine on rat primary cerebrovascular endothelial cells)
# conditions-used: 10^−4 M
Could you please report measured Comparison with the Binding of Phenylalanine for the items listed next?

# get_value(readout='Comparison with the Binding of Phenylalanine', item= NC(Cc1cccc(-c2cccc(N3CCN(c4ccccn4)CC3)c2)c1)C(=O)O (stereo not drawn) [Compound 113] )
0 (X < 0 Rank 0)

# repeat for CCOC(=O)c1cnc(SCc2cccc(CC(N)C(=O)O)n2)[nH]c1=O (stereo not drawn) [Compound 146]
2 (10 < X < 20 Rank 2)

Subsequent entry: O=C(Nc1ccc(-c2ccccc2)cc1)NC(Cc1cccc(CSc2ncc[nH]2)c1)C(=O)O (stereo not drawn) [Compound 52]
0 (X < 0 Rank 0)

What would you report for Cc1nnc(Sc2cccc(-c3cccc(CC(N)C(=O)O)c3)c2)s1 (stereo not drawn) [Compound 111] ?
2 (10 < X < 20 Rank 2)

Subsequent entry: Cc1nc(SCc2cccc(CC(N)C(=O)O)n2)sc1CC(=O)O (stereo not drawn) [Compound 92]
0 (X < 0 Rank 0)

// query: NC(Cc1cccc(CN2CCN(c3ncccn3)CC2)n1)C(=O)O (stereo not drawn) [Compound 158]
0 (X < 0 Rank 0)

Consider next the compound NC(Cc1cccc(CSc2nc(-c3ccccc3)c(-c3ccccc3)o2)n1)C(=O)O (stereo not drawn) [Compound 119] in the same way.
2 (10 < X < 20 Rank 2)

Now the same for NC(Cc1cccc(CSc2ccnc3cc(C(F)(F)F)ccc23)n1)C(=O)O (stereo not drawn) [Compound 45]
0 (X < 0 Rank 0)

Quick one: CCOC(=O)c1c[nH]c(Sc2cccc(-c3cccc(CC(N)C(=O)O)c3)c2)nc1=O (stereo not drawn) [Compound 72]
1 (0 < X < 10 Rank 1)

Entry NC(Cc1cccc(CSc2nc3ccccc3c(=O)[nH]2)n1)C(=O)O (stereo not drawn) [Compound 125] please
0 (X < 0 Rank 0)

Also check NC(Cc1ccc(-c2ccc(CSc3nc(-c4ccccc4)c(-c4ccccc4)[nH]3)cc2)cc1)C(=O)O (stereo not drawn) [Compound 89]
1 (0 < X < 10 Rank 1)

NC(Cc1cccc(CSc2ncc[nH]2)c1)C(=O)O (stereo not drawn) [Compound 5] , same question.
3 (X > 20 Rank 3)

Param item: Cn1cnnc1Sc1cccc(-c2cccc(CC(N)C(=O)O)c2)c1 (stereo not drawn) [Compound 82]
2 (10 < X < 20 Rank 2)

Another compound to look at: NC(Cc1cccc(CSc2ncccc2C(=O)O)c1)C(=O)O (stereo not drawn) [Compound 137]
0 (X < 0 Rank 0)

Another compound to look at: O=C(Nc1ccc(-c2ccccc2)cc1)NC(Cc1cccc(CSc2nnc(-c3ccccc3)o2)c1)C(=O)O (stereo not drawn) [Compound 49]
2 (10 < X < 20 Rank 2)

Quick one: NC(=O)C(N)Cc1cccc(CSc2ncnc3[nH]ncc23)n1 (stereo not drawn) [Compound 34]
0 (X < 0 Rank 0)

Another compound: CCOC(=O)c1c[nH]c(SCc2ccc(-c3ccc(CC(N)C(=O)O)cc3)cc2)nc1=O (stereo not drawn) [Compound 87]
2 (10 < X < 20 Rank 2)

Would you kindly repeat that for NC(Cc1cccc(CSc2nnc(-c3ccccc3)[nH]2)c1)C(=O)O (stereo not drawn) [Compound 13] ?
3 (X > 20 Rank 3)

----------
# system-under-test: L1 transport system (large neutral amino acid carrier, L1-system carrier) (Rattus norvegicus)
# Construct: functionality of their endogenous transporters such as the L1-system carrier; endogenous in cells; host or cells: rat primary cerebrovascular (brain microcapillary) endothelial cells, RBEC
# protocol-notes: Competitive binding assay to the brain L1 transport system (L-[U-14C]phenylalanine on rat primary cerebrovascular endothelial cells)
# conditions-used: 10^−5 M
observation-type: Comparison with the Binding of Phenylalanine

Requested field: Comparison with the Binding of Phenylalanine. Item: Cc1nnc(SCc2cccc(CC(N)C(=O)O)c2)s1 (centres unmarked)
3 (X > 20 Rank 3)

Next up: NC(Cc1cccc(CSc2ccnc3cc(C(F)(F)F)ccc23)c1)C(=O)O (centres unmarked)
1 (0 < X < 10 Rank 1)

What do we get for Cc1ccnc(SCc2ccc(-c3ccc(CC(N)C(=O)O)cc3)cc2)n1 (centres unmarked) ?
0 (X < 0 Rank 0)

Also, O=C(NC(Cc1cccc(CSc2nccc(O)n2)c1)C(=O)O)NC(c1ccccc1)c1ccccc1 (centres unmarked) please.
1 (0 < X < 10 Rank 1)

How about N#CC1(c2ccccc2)CCN(Cc2cccc(CC(N)C(=O)O)n2)CC1 (centres unmarked) ?
0 (X < 0 Rank 0)

Subsequent entry: NC(=O)C(N)Cc1cccc(CSc2nnnn2-c2ccc(O)cc2)c1 (centres unmarked)
3 (X > 20 Rank 3)

Record: NC(Cc1cccc(CN2CCN(c3ncccn3)CC2)n1)C(=O)O (centres unmarked)
0 (X < 0 Rank 0)

Input CN(C)CCn1nnnc1SCc1ccc(-c2ccc(CC(N)C(=O)O)cc2)cc1 (centres unmarked)
3 (X > 20 Rank 3)

Entry NC(Cc1cccc(CN2CC=CCC2)n1)C(=O)O (centres unmarked) please
0 (X < 0 Rank 0)

Queued: CC(=O)c1ccc(N2CCN(Cc3cccc(CC(N)C(=O)O)c3)CC2)cc1 (centres unmarked)
3 (X > 20 Rank 3)

Try the compound O=C(Nc1ccc(-c2ccccc2)cc1)NC(Cc1cccc(CSc2cncc3c(C(F)(F)F)cccc23)n1)C(=O)O (centres unmarked)
0 (X < 0 Rank 0)

Subsequent entry: NC(=O)C(N)Cc1cccc(CSc2nccc(N)n2)n1 (centres unmarked)
2 (10 < X < 20 Rank 2)

Follow-up entry: NC(Cc1ccc(-c2ccc(CSc3ccnc4cc(C(F)(F)F)ccc34)cc2)cc1)C(=O)O (centres unmarked)
2 (10 < X < 20 Rank 2)

// repeat for COc1ccc2[nH]c(Sc3cccc(-c4cccc(CC(N)C(=O)O)c4)c3)nc2c1 (centres unmarked) and report
0 (X < 0 Rank 0)

And the next one, CCOC(=O)c1cnc(SCc2cccc(CC(N)C(=O)O)c2)[nH]c1=O (centres unmarked) ?
3 (X > 20 Rank 3)

Try the compound NC(Cc1cccc(CSc2ncc[nH]2)c1)C(=O)O (centres unmarked)
3 (X > 20 Rank 3)

Continue with N[C@@H](Cc1ccccc1)C(=O)NC(Cc1cccc(CSc2ncc[nH]2)c1)C(=O)O (some centres unmarked)
0 (X < 0 Rank 0)

Let us now turn to CN(C)CCn1nnnc1Sc1cccc(-c2cccc(CC(N)C(=O)O)c2)c1 (centres unmarked)
2 (10 < X < 20 Rank 2)

Item: N[C@@H](Cc1ccccc1)C(=O)NC(Cc1cccc(CSc2nc3ccccc3o2)n1)C(=O)O (some centres unmarked)
1 (0 < X < 10 Rank 1)

Also need NC(=O)C(Cc1cccc(CSc2nnc(-c3ccncc3)o2)c1)NC(=O)NC(c1ccccc1)c1ccccc1 (centres unmarked) , thanks.
3 (X > 20 Rank 3)

Continue with O=C(NC(Cc1cccc(CSc2nnc(-c3ccccc3)[nH]2)c1)C(=O)O)NC(c1ccccc1)c1ccccc1 (centres unmarked)
3 (X > 20 Rank 3)

Subsequent entry: NC(Cc1ccc(-c2ccc(CSc3nc(-c4ccccc4)c(-c4ccccc4)[nH]3)cc2)cc1)C(=O)O (centres unmarked) [Compound 149]
3 (X > 20 Rank 3)

What about NC(Cc1ccc(-c2ccc(CSc3nc4ccccc4c(=O)[nH]3)cc2)cc1)C(=O)O (centres unmarked) ?
0 (X < 0 Rank 0)

Next compound: CN(C)CCn1nnnc1SCc1cccc(CC(N)C(=O)O)n1 (centres unmarked)
1 (0 < X < 10 Rank 1)

Same thing, different compound: NC(Cc1cccc(CSc2nc3ccccc3[nH]2)n1)C(=O)O (centres unmarked)
3 (X > 20 Rank 3)

Input CCOC(=O)c1cnc(SCc2cccc(CC(N)C(=O)O)n2)[nH]c1=O (centres unmarked)
3 (X > 20 Rank 3)

Same question for CCOC(=O)c1c[nH]c(SCc2ccc(-c3ccc(CC(N)C(=O)O)cc3)cc2)nc1=O (centres unmarked) please.
3 (X > 20 Rank 3)

Can you check Cn1cnnc1Sc1cccc(-c2cccc(CC(N)C(=O)O)c2)c1 (centres unmarked) next?
3 (X > 20 Rank 3)

Now this one: NC(Cc1cccc(CN2CCN(c3ccc(F)cc3)CC2)c1)C(=O)O (centres unmarked)
0 (X < 0 Rank 0)

Subsequent entry: NC(Cc1cccc(-c2cccc(N3CCN(c4ccc(F)cc4)CC3)c2)c1)C(=O)O (centres unmarked)
2 (10 < X < 20 Rank 2)

Could you do the same for NC(Cc1cccc(CN2CCN(c3cccc(Cl)c3)CC2)c1)C(=O)O (centres unmarked) , please?
0 (X < 0 Rank 0)

Next compound up: NC(Cc1cccc(CSc2nccc(O)n2)c1)C(=O)O (centres unmarked)
1 (0 < X < 10 Rank 1)

Also, NC(=O)C(N)Cc1cccc(CSc2nccc(C(F)(F)F)n2)n1 (centres unmarked) please.
1 (0 < X < 10 Rank 1)

// next record NC(Cc1cccc(CSc2nc3ccccc3o2)n1)C(=O)O (centres unmarked)
2 (10 < X < 20 Rank 2)

# repeat for N[C@@H](Cc1ccccc1)C(=O)NC(Cc1cccc(CSc2nnc(-c3ccccc3)o2)c1)C(=O)O (some centres unmarked)
1 (0 < X < 10 Rank 1)

Cited source: patent US20060167057A1
